molecular target: Human immunodeficiency virus type 1 reverse transcriptase (Human immunodeficiency virus 1, UniProt Q72547, Y188L); assay: Inhibition of HIV1 recombinant reverse transcriptase Y188L mutant by SPA heteropolymeric assay
ASSAY_READOUT: IC50 (nM)
Express the result in nM but write the number alone.

Before answering, review these 6 worked examples.
### Prompt Query: IC50; subject: `Cc1cc(C#N)cc(C)c1Oc1nc(NC2CCN(c3cccc(C(N)=O)c3)CC2)ncc1N`
### Response 118

### Prompt Then this molecule: `Cc1cc(C#N)cc(C)c1Oc1nc(NC2CCN(c3cccc(S(N)(=O)=O)c3)CC2)ncc1Br`
### Response 105

### Prompt Let us now turn to `Cc1cc(C#N)cc(C)c1Oc1nc(NC2CCN(c3cc(C(N)=O)ccc3Cl)CC2)ncc1Br`
### Response 874

### Prompt Entry `Cc1cc(C#N)cc(C)c1Oc1nc(NC2CCN(c3cccc(C(N)=O)c3)CC2)ncc1Br` please
### Response 70

### Prompt Same question, `Cc1cc(C#N)cc(C)c1Oc1nc(NC2CCN(c3cccc(C(N)=O)c3)CC2)ncc1F` this time
### Response 35

### Prompt Also check `Cc1cc(C#N)cc(C)c1Oc1ccnc(NC2CCN(c3cccc(S(N)(=O)=O)c3)CC2)n1`
### Response 194

New cases:
### Prompt Find the recorded IC50 belonging to `COc1cc(C#N)cc(C)c1Oc1nc(NC2CCN(c3cccc(C(N)=O)c3)CC2)ncc1Cl` and report it.
### Response 101

### Prompt How about `COc1cc(C#N)cc(C)c1Oc1ccnc(NC2CCN(c3cccc(C(N)=O)c3)CC2)n1` ?
### Response 64

### Prompt What would you report for `Cc1cc(C#N)cc(C)c1Nc1nc(NC2CCN(c3cccc(C(N)=O)c3)CC2)ncc1Br` ?
### Response 75

### Prompt Note, next up: `COc1cc(C#N)cc(C)c1Oc1nc(NC2CCN(c3cccc(C(N)=O)c3)CC2)ncc1C`
### Response 66

### Prompt Also, `Cc1cc(C#N)cc(Cl)c1Oc1nc(NC2CCN(c3cccc(C(N)=O)c3)CC2)ncc1Cl` please.
### Response 48

### Prompt Also, `Cc1cc(C#N)cc(C)c1Oc1ccnc(NC2CCN(c3cccc(C(N)=O)c3)CC2)n1` please.
### Response 34

### Prompt Same thing, different molecule: `Cc1cc(C#N)cc(Cl)c1Nc1nc(NC2CCN(c3cccc(C(N)=O)c3)CC2)ncc1Br`
### Response 42

* * *

assay: Clearance in human liver microsomes; type: ADME, Microsome
ASSAY_READOUT: log10(microsomal CLint) (log10 of the value in µL/min/mg)
In our notation, the value equals log10 of microsomal CLint in µL/min/mg.

Consider the reported log10(microsomal CLint) for these compounds:
### Prompt # get_value(readout='log10(microsomal CLint)', item= `Cc1cc(C#N)cc(C)c1Oc1nc(NC2CCN(Cc3ccc(S(N)(=O)=O)cc3Cl)CC2)ncc1Br` )
### Response 2.18

### Prompt Now the same for `Cc1cc(C#N)cc(C)c1Oc1nc(Nc2ccc(C#N)cc2)nc(N)c1Br`
### Response 1.46

### Prompt Now the same for `Cc1cc(C#N)cc(Cl)c1Nc1nc(NC2CCN(c3cccc(C(N)=O)c3)CC2)ncc1Br`
### Response 2.62

### Prompt Entry `Cc1cnc(NC2CCN(c3cccc(C(N)=O)c3)CC2)nc1Oc1c(C)cc(C#N)cc1C` please
### Response 2.86

### Prompt Another compound to check: `Cc1cc(C#N)cc(C)c1Nc1nc(NC2CCN(c3cccc(C(N)=O)c3)CC2)ncc1Br`
### Response 1.62

More entries:
### Prompt Quick one: log10(microsomal CLint) of `Cc1cc(C#N)cc(C)c1Nc1ccnc(NC2CCN(c3cccc(C(N)=O)c3)CC2)n1` ?
### Response 1.49

### Prompt `Cc1cc(C#N)cc(Cl)c1Oc1ccnc(NC2CCN(c3cccc(C(N)=O)c3)CC2)n1` , same question.
### Response 2.44

### Prompt Try `Cc1cnc(NC2CCN(c3cccc(C(N)=O)c3)CC2)nc1Oc1c(C)cc(C#N)cc1Cl` next.
### Response 2.76

### Prompt Also `Cc1cc(C#N)cc(F)c1Oc1nc(NC2CCN(c3cccc(C(N)=O)c3)CC2)ncc1Br` , if possible.
### Response 1.91

Data provenance: ChEMBL document CHEMBL1255200
